settings: in acetone, 323.15 K
Observed Property: solubility (mole fraction)
Give a plain numeric answer without units written out.

*Q* Name the reported solubility (mole fraction) value associated with the compound CCOc1ccc2ccccc2c1C(=O)O
*A* 0.159

====

conditions: in n-propyl acetate, 318.15 K
Observed Property: solubility (mole fraction)
API note: the answer field is a bare number with no unit suffix.

*Q* Value lookup for solubility (mole fraction); key = CCOc1ccc2ccccc2c1C(=O)O
*A* 0.0445

====

conditions: in isopropanol, 303.15 K
Observed Property: solubility (mole fraction)

*Q* Name the reported solubility (mole fraction) value associated with the compound CCOc1ccc2ccccc2c1C(=O)O
*A* 0.0459

====

conditions: in isopropanol, 318.15 K
Observed Property: solubility (mole fraction)
Answer with a bare number; do not write a unit.

*Q* Fill blank: measured solubility (mole fraction) of the molecule CCOc1ccc2ccccc2c1C(=O)O is ____.
*A* 0.0901

====

conditions: in acetonitrile, 318.15 K
Observed Property: solubility (mole fraction)
A bare number is all that is needed in reply.

*Q* Bench note: what solubility (mole fraction) did CCOc1ccc2ccccc2c1C(=O)O show?
*A* 0.0308

====

conditions: in n-propanol, 278.15 K
Observed Property: solubility (mole fraction)
Write the value as a bare number.

*Q* Entry CCOc1ccc2ccccc2c1C(=O)O has what solubility (mole fraction)?
*A* 0.0212

====

conditions: in n-pentanol, 298.15 K
Observed Property: solubility (mole fraction)
Lab note: record the figure alone, no unit after it.

*Q* What value of measured solubility (mole fraction) is listed for CCOc1ccc2ccccc2c1C(=O)O ?
*A* 0.0356

====

conditions: in methanol, 303.15 K
Observed Property: solubility (mole fraction)
I'd appreciate a reply containing only the number, no unit.

*Q* Returns the measured solubility (mole fraction) for the input compound. Input: CCOc1ccc2ccccc2c1C(=O)O
*A* 0.0821

====

conditions: in isopropanol, 288.15 K
Observed Property: solubility (mole fraction)
Provide a numeric answer; units are not to be included.

*Q* # lookup: solubility (mole fraction) of CCOc1ccc2ccccc2c1C(=O)O
*A* 0.0228

====

conditions: in n-propyl acetate, 298.15 K
Observed Property: solubility (mole fraction)
// keep it numeric: no unit symbol after the value

*Q* # solubility (mole fraction) lookup, item CCOc1ccc2ccccc2c1C(=O)O
*A* 0.024

====

details: in ethyl acetate, 283.15 K
Observed Property: solubility (mole fraction)

*Q* Recorded solubility (mole fraction) for CCOc1ccc2ccccc2c1C(=O)O , please?
*A* 0.0174

====

details: in ethyl acetate, 313.15 K
Observed Property: solubility (mole fraction)
Enter the number alone.

*Q* Item CCOc1ccc2ccccc2c1C(=O)O has what recorded solubility (mole fraction)?
*A* 0.0447

====

settings: in methyl acetate, 283.15 K
Observed Property: solubility (mole fraction)

*Q* Value lookup for solubility (mole fraction); key = CCOc1ccc2ccccc2c1C(=O)O
*A* 0.0181

====

settings: in n-pentanol, 293.15 K
Observed Property: solubility (mole fraction)
Number, no unit, nothing else.

*Q* Need solubility (mole fraction) of CCOc1ccc2ccccc2c1C(=O)O , thanks.
*A* 0.0296

====

conditions: in n-pentanol, 283.15 K
Observed Property: solubility (mole fraction)

*Q* Which solubility (mole fraction) reading was recorded for the compound CCOc1ccc2ccccc2c1C(=O)O ?
*A* 0.0205

====

details: in isobutanol, 308.15 K
Observed Property: solubility (mole fraction)
Reply with the value as a number alone.

*Q* Which solubility (mole fraction) reading was recorded for the compound CCOc1ccc2ccccc2c1C(=O)O ?
*A* 0.0396
